Data origin: ChEMBL document CHEMBL5518209

assay: Acute toxicity in iv dosed ICR mouse assessed as maximum tolerated dose measured after 7 days; type: organism-based; conditions: in vivo, time 7 day
endpoint-label: MTD at 168 h

**Query** Given `NCCCOc1ccc(-c2cc[n+](Cc3ccc(C(c4ccc(C[n+]5ccc(-c6ccc(OCCCN)cc6)cc5)cc4)(c4ccc(C[n+]5ccc(-c6ccc(OCCCN)cc6)cc5)cc4)c4ccc(C[n+]5ccc(-c6ccc(OCCCN)cc6)cc5)cc4)cc3)cc2)cc1.[Cl-].[Cl-].[Cl-].[Cl-]` , state its recorded MTD at 168 h.
**Result** 15 mg/kg

====

species: Bos taurus; assay: Neutralization of unfractionated heparin in bovine plasma at 10 to 60 ug/ml by aPTT assay; assay type: cell-free; details: dose 10-60 µg/ml
Calls of active or inactive are those of the source. No cut-off for these calls is given here.
Pick one and only one: y = active, n = inactive

**Query** Each compound tested received a call. Report the one for `NCCOc1ccc2c[n+](Cc3ccc(C(c4ccc(C[n+]5ccc6cc(OCCN)ccc6c5)cc4)(c4ccc(C[n+]5ccc6cc(OCCN)ccc6c5)cc4)c4ccc(C[n+]5ccc6cc(OCCN)ccc6c5)cc4)cc3)ccc2c1` .
**Result** y

**Query** Also check `COc1ccc(-c2cc[n+](Cc3ccc(C(c4ccc(C[n+]5ccc(-c6ccc(OC)cc6)cc5)cc4)(c4ccc(C[n+]5ccc(-c6ccc(OC)cc6)cc5)cc4)c4ccc(C[n+]5ccc(-c6ccc(OC)cc6)cc5)cc4)cc3)cc2)cc1`
**Result** n

**Query** Also check `NCC(=O)Nc1ccc(-c2cc[n+](Cc3ccc(C(c4ccc(C[n+]5ccc(-c6ccc(NC(=O)CN)cc6)cc5)cc4)(c4ccc(C[n+]5ccc(-c6ccc(NC(=O)CN)cc6)cc5)cc4)c4ccc(C[n+]5ccc(-c6ccc(NC(=O)CN)cc6)cc5)cc4)cc3)cc2)cc1.[Cl-].[Cl-].[Cl-].[Cl-]`
**Result** y

**Query** Also check `NCCOc1ccc(-n2cc[n+](Cc3ccc(C(c4ccc(C[n+]5ccn(-c6ccc(OCCN)cc6)c5)cc4)(c4ccc(C[n+]5ccn(-c6ccc(OCCN)cc6)c5)cc4)c4ccc(C[n+]5ccn(-c6ccc(OCCN)cc6)c5)cc4)cc3)c2)cc1`
**Result** y

**Query** Also check `Cn1cc[n+](Cc2ccc(C(c3ccc(C[n+]4ccn(C)c4)cc3)(c3ccc(C[n+]4ccn(C)c4)cc3)c3ccc(C[n+]4ccn(C)c4)cc3)cc2)c1`
**Result** n

====

species: Bos taurus; test: Neutralization of unfractionated heparin in bovine plasma at 10 to 60 ug/ml by aPTT assay; assay type: cell-free; settings: dose 10-60 µg/ml
The source made the active and inactive calls. The rule behind the calls is not given here.
Pick one and only one: TRUE (active), FALSE (inactive)

**Query** Each compound tested received a call. Report the one for `NCCOc1ccc(-c2cc[n+](Cc3ccc(C(c4ccc(C[n+]5ccc(-c6ccc(OCCN)c(OCCN)c6)cc5)cc4)(c4ccc(C[n+]5ccc(-c6ccc(OCCN)c(OCCN)c6)cc5)cc4)c4ccc(C[n+]5ccc(-c6ccc(OCCN)c(OCCN)c6)cc5)cc4)cc3)cc2)cc1OCCN.[Cl-].[Cl-].[Cl-].[Cl-]` .
**Result** TRUE

**Query** Also check `NCCSc1ccc(-c2cc[n+](Cc3ccc(C(c4ccc(C[n+]5ccc(-c6ccc(SCCN)cc6)cc5)cc4)(c4ccc(C[n+]5ccc(-c6ccc(SCCN)cc6)cc5)cc4)c4ccc(C[n+]5ccc(-c6ccc(SCCN)cc6)cc5)cc4)cc3)cc2)cc1.[Cl-].[Cl-].[Cl-].[Cl-]`
**Result** TRUE

**Query** Also check `NCCCOc1ccc(-c2cc[n+](Cc3ccc(C(c4ccc(C[n+]5ccc(-c6ccc(OCCCN)cc6)cc5)cc4)(c4ccc(C[n+]5ccc(-c6ccc(OCCCN)cc6)cc5)cc4)c4ccc(C[n+]5ccc(-c6ccc(OCCCN)cc6)cc5)cc4)cc3)cc2)cc1.[Cl-].[Cl-].[Cl-].[Cl-]`
**Result** TRUE

**Query** Also check `c1cc[n+](Cc2ccc(C(c3ccc(C[n+]4ccccc4)cc3)(c3ccc(C[n+]4ccccc4)cc3)c3ccc(C[n+]4ccccc4)cc3)cc2)cc1`
**Result** FALSE

====

experiment: Cytotoxicity against human MCF7 cells assessed as cell viability at 300 ug/ml incubated for 24 hrs by CCK-8 assay relative to control; assay type: toxicity, cell-based; details: at 300 µg/mL, read-out: Activity
endpoint-label: viability at 24 h, 300 ug/ml

**Query** Given `NCCOc1ccc(-c2cc[n+](Cc3ccc(C(c4ccc(C[n+]5ccc(-c6ccc(OCCN)c(OCCN)c6)cc5)cc4)(c4ccc(C[n+]5ccc(-c6ccc(OCCN)c(OCCN)c6)cc5)cc4)c4ccc(C[n+]5ccc(-c6ccc(OCCN)c(OCCN)c6)cc5)cc4)cc3)cc2)cc1OCCN.[Cl-].[Cl-].[Cl-].[Cl-]` , state its recorded viability at 24 h, 300 ug/ml.
**Result** > 80%

====

assay: Cytotoxicity against rat H9c2 cells assessed as cell viability at 300 ug/ml incubated for 24 hrs by CCK-8 assay relative to control; type: toxicity, cell-based; conditions: at 300 µg/mL, read-out: Activity
endpoint-label: viability at 24 h, 300 ug/ml

**Query** Given `NCCOc1ccc(-c2cc[n+](Cc3ccc(C(c4ccc(C[n+]5ccc(-c6ccc(OCCN)c(OCCN)c6)cc5)cc4)(c4ccc(C[n+]5ccc(-c6ccc(OCCN)c(OCCN)c6)cc5)cc4)c4ccc(C[n+]5ccc(-c6ccc(OCCN)c(OCCN)c6)cc5)cc4)cc3)cc2)cc1OCCN.[Cl-].[Cl-].[Cl-].[Cl-]` , state its recorded viability at 24 h, 300 ug/ml.
**Result** > 80%

====

species: Bos taurus; assay: Neutralization of nadroparin calcium in bovine plasma at 10 to 60 ug/ml by aPTT assay; assay type: cell-free; details: dose 10-60 µg/ml
Activity calls are given as the source filed them. The rule behind the calls is not given here.
Pick one and only one: t (active), f (inactive)

**Query** Each compound tested received a call. Report the one for `NCCOc1ccc(-c2cc[n+](Cc3ccc(C(c4ccc(C[n+]5ccc(-c6ccc(OCCN)c(OCCN)c6)cc5)cc4)(c4ccc(C[n+]5ccc(-c6ccc(OCCN)c(OCCN)c6)cc5)cc4)c4ccc(C[n+]5ccc(-c6ccc(OCCN)c(OCCN)c6)cc5)cc4)cc3)cc2)cc1OCCN.[Cl-].[Cl-].[Cl-].[Cl-]` .
**Result** t

**Query** Also check `NCCSc1ccc(-c2cc[n+](Cc3ccc(C(c4ccc(C[n+]5ccc(-c6ccc(SCCN)cc6)cc5)cc4)(c4ccc(C[n+]5ccc(-c6ccc(SCCN)cc6)cc5)cc4)c4ccc(C[n+]5ccc(-c6ccc(SCCN)cc6)cc5)cc4)cc3)cc2)cc1.[Cl-].[Cl-].[Cl-].[Cl-]`
**Result** t

**Query** Also check `Cn1cc[n+](Cc2ccc(C(c3ccc(C[n+]4ccn(C)c4)cc3)(c3ccc(C[n+]4ccn(C)c4)cc3)c3ccc(C[n+]4ccn(C)c4)cc3)cc2)c1`
**Result** f

====

species on record: Bos taurus; assay: Neutralization of nadroparin calcium in bovine plasma at 10 to 60 ug/ml by aPTT assay; format: cell-free; conditions: dose 10-60 µg/ml
The source made the active and inactive calls. The rule behind the calls is not given here.
Pick one and only one: active, inactive

**Query** Each molecule tested received a call. Report the one for `NCC(=O)Nc1ccc(-c2cc[n+](Cc3ccc(C(c4ccc(C[n+]5ccc(-c6ccc(NC(=O)CN)cc6)cc5)cc4)(c4ccc(C[n+]5ccc(-c6ccc(NC(=O)CN)cc6)cc5)cc4)c4ccc(C[n+]5ccc(-c6ccc(NC(=O)CN)cc6)cc5)cc4)cc3)cc2)cc1.[Cl-].[Cl-].[Cl-].[Cl-]` .
**Result** active

**Query** Also check `NCCOc1ccc2c[n+](Cc3ccc(C(c4ccc(C[n+]5ccc6cc(OCCN)ccc6c5)cc4)(c4ccc(C[n+]5ccc6cc(OCCN)ccc6c5)cc4)c4ccc(C[n+]5ccc6cc(OCCN)ccc6c5)cc4)cc3)ccc2c1`
**Result** active

**Query** Also check `COc1ccc(-c2cc[n+](Cc3ccc(C(c4ccc(C[n+]5ccc(-c6ccc(OC)cc6)cc5)cc4)(c4ccc(C[n+]5ccc(-c6ccc(OC)cc6)cc5)cc4)c4ccc(C[n+]5ccc(-c6ccc(OC)cc6)cc5)cc4)cc3)cc2)cc1`
**Result** inactive

**Query** Also check `NCCCOc1ccc(-c2cc[n+](Cc3ccc(C(c4ccc(C[n+]5ccc(-c6ccc(OCCCN)cc6)cc5)cc4)(c4ccc(C[n+]5ccc(-c6ccc(OCCCN)cc6)cc5)cc4)c4ccc(C[n+]5ccc(-c6ccc(OCCCN)cc6)cc5)cc4)cc3)cc2)cc1.[Cl-].[Cl-].[Cl-].[Cl-]`
**Result** active

**Query** Also check `NCCOc1ccc(-n2cc[n+](Cc3ccc(C(c4ccc(C[n+]5ccn(-c6ccc(OCCN)cc6)c5)cc4)(c4ccc(C[n+]5ccn(-c6ccc(OCCN)cc6)c5)cc4)c4ccc(C[n+]5ccn(-c6ccc(OCCN)cc6)c5)cc4)cc3)c2)cc1`
**Result** active

**Query** Also check `c1cc[n+](Cc2ccc(C(c3ccc(C[n+]4ccccc4)cc3)(c3ccc(C[n+]4ccccc4)cc3)c3ccc(C[n+]4ccccc4)cc3)cc2)cc1`
**Result** inactive
